System: 598228-144-R-J1-PDC complex spheroid viability
test.name: Anticancer human tumor 598228-144-R-J1-PDC patient-derived serous endometrial adenocarcinoma cell line growth inhibition [GQUAD]
conditions: second compound 3.16 µM; first compound 0.0316 µM; stronger effect = lower value
Listed here: items and their measured viability, T/C.
Numeric answer only, unit % assumed.

Some molecules with known viability, T/C results, for comparison:
{"molecule": "CC[C@@]1(O)C(=O)OCc2c1cc1n(c2=O)Cc2cc3c(CN(C)C)c(O)ccc3nc2-1 + Cc1cnc(CNC(=O)c2c(=O)c3ccc(N4CCCN(C)CC4)nc3n3c2sc2ccccc23)cn1", "unit": "%", "viability, T/C": 52}
{"molecule": "C=CCn1c(=O)c2cnc(Nc3ccc(N4CCN(C)CC4)cc3)nc2n1-c1cccc(C(C)(C)O)n1 + CN(C)c1ccc(Nc2c3ccc(NC(=O)CCN4CCCC4)cc3nc3cc(NC(=O)CCN4CCCC4)ccc23)cc1", "unit": "%", "viability, T/C": 131}
{"molecule": "CC1COCCN1c1cc(-c2ccnn2C)c2ccnc(-c3ccn[nH]3)c2n1 (stereo not given) + Cc1cnc(CNC(=O)c2c(=O)c3ccc(N4CCCN(C)CC4)nc3n3c2sc2ccccc23)cn1", "unit": "%", "viability, T/C": 45.8}

q: # lookup: viability, T/C of Cc1[nH]c2ccccc2c1CCNCc1ccc(/C=C/C(=O)NO)cc1 + CN(C)c1ccc(Nc2c3ccc(NC(=O)CCN4CCCC4)cc3nc3cc(NC(=O)CCN4CCCC4)ccc23)cc1
a: 66.7

q: Next entry: O=C(c1cc(Cc2n[nH]c(=O)c3ccccc23)ccc1F)N1CCN(C(=O)C2CC2)CC1 + Cc1cnc(CNC(=O)c2c(=O)c3ccc(N4CCCN(C)CC4)nc3n3c2sc2ccccc23)cn1
a: 58.1

q: Next entry: C=CCn1c(=O)c2cnc(Nc3ccc(N4CCN(C)CC4)cc3)nc2n1-c1cccc(C(C)(C)O)n1 + Cc1[nH]c2ccc(F)cc2c1-c1nc2c3cccnc3c3ncccc3c2[nH]1
a: 40.1

q: Next entry: CCCS(=O)(=O)Nc1ccc(F)c(C(=O)c2c[nH]c3ncc(-c4ccc(Cl)cc4)cc23)c1F + Cc1cnc(CNC(=O)c2c(=O)c3ccc(N4CCCN(C)CC4)nc3n3c2sc2ccccc23)cn1
a: 59.9

q: Next entry: CC1COCCN1c1cc(C2(S(C)(=N)=O)CC2)nc(-c2ccnc3[nH]ccc23)n1 (stereo not given) + Cc1[nH]c2ccc(F)cc2c1-c1nc2c3cccnc3c3ncccc3c2[nH]1
a: 36.9

q: Next entry: CCc1c2c(nc3ccc(O)cc13)-c1cc3c(c(=O)n1C2)COC(=O)[C@]3(O)CC + CN(C)c1ccc(Nc2c3ccc(NC(=O)CCN4CCCC4)cc3nc3cc(NC(=O)CCN4CCCC4)ccc23)cc1
a: 37.4

q: Next entry: O=C(NO)c1cnc(N2CCN(S(=O)(=O)c3ccc4ccccc4c3)CC2)nc1 + Cc1cnc(CNC(=O)c2c(=O)c3ccc(N4CCCN(C)CC4)nc3n3c2sc2ccccc23)cn1
a: 38.1

q: Next entry: CC1COCCN1c1cc(C2(O)CC3CCC(C2)O3)c2cnn(-c3ccn[nH]3)c2n1 (stereo not given) + Cc1[nH]c2ccc(F)cc2c1-c1nc2c3cccnc3c3ncccc3c2[nH]1
a: 36.8

q: Next entry: CC(C)(O)C1CCC(Nc2ccc3ncc(-c4cccc(C(F)(F)F)c4)n3n2)CC1 (stereo not given) + Cc1cnc(CNC(=O)c2c(=O)c3ccc(N4CCCN(C)CC4)nc3n3c2sc2ccccc23)cn1
a: 51.2

q: Next entry: CC[C@@]1(O)C(=O)OCc2c1cc1n(c2=O)Cc2cc3c(CN(C)C)c(O)ccc3nc2-1 + Cc1[nH]c2ccc(F)cc2c1-c1nc2c3cccnc3c3ncccc3c2[nH]1
a: 35.7

q: Next entry: CC(C)n1c(=O)n(C)c2cnc3cc(F)c(-c4ccc(OCCCN5CCCCC5)nc4)cc3c21 + CN(C)c1ccc(Nc2c3ccc(NC(=O)CCN4CCCC4)cc3nc3cc(NC(=O)CCN4CCCC4)ccc23)cc1
a: 98.2

q: Next entry: C=CC(=O)N1CCN(c2nc(=O)n(-c3c(C)ccnc3C(C)C)c3nc(-c4c(O)cccc4F)c(F)cc23)C(C)C1 (stereo not given) + CN(C)c1ccc(Nc2c3ccc(NC(=O)CCN4CCCC4)cc3nc3cc(NC(=O)CCN4CCCC4)ccc23)cc1
a: 93.5

q: Next entry: CC1COCCN1c1cc(C2(S(C)(=N)=O)CC2)nc(-c2ccnc3[nH]ccc23)n1 (stereo not given) + CN(C)c1ccc(Nc2c3ccc(NC(=O)CCN4CCCC4)cc3nc3cc(NC(=O)CCN4CCCC4)ccc23)cc1
a: 125

q: Next entry: CC1COCCN1c1cc(-c2ccnn2C)c2ccnc(-c3ccn[nH]3)c2n1 (stereo not given) + CN(C)c1ccc(Nc2c3ccc(NC(=O)CCN4CCCC4)cc3nc3cc(NC(=O)CCN4CCCC4)ccc23)cc1
a: 74.6

q: Next entry: CC(=O)O[C@H]1C(=O)[C@@]2(C)[C@H]([C@H](OC(=O)c3ccccc3)[C@]3(O)C[C@H](OC(=O)[C@H](O)[C@@H](NC(=O)c4ccccc4)c4ccccc4)C(C)=C1C3(C)C)[C@]1(OC(C)=O)CO[C@@H]1C[C@@H]2O + Cc1[nH]c2ccc(F)cc2c1-c1nc2c3cccnc3c3ncccc3c2[nH]1
a: 45.2

q: Next entry: Cc1[nH]c2ccccc2c1CCNCc1ccc(/C=C/C(=O)NO)cc1 + Cc1cnc(CNC(=O)c2c(=O)c3ccc(N4CCCN(C)CC4)nc3n3c2sc2ccccc23)cn1
a: 0.32

q: Next entry: CC1COCCN1c1cc(C2(S(C)(=N)=O)CC2)nc(-c2ccnc3[nH]ccc23)n1 (stereo not given) + Cc1cnc(CNC(=O)c2c(=O)c3ccc(N4CCCN(C)CC4)nc3n3c2sc2ccccc23)cn1
a: 48.8

###

Test system: 598228-144-R-J1-PDC complex spheroid viability
test.name: Anticancer human tumor 598228-144-R-J1-PDC cell line growth inhibition [GQUAD]; active = viability on the fitted dose curve at most 10% of control; inactive = the rest;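 further: spheroids exposed to the agents for one week before reading; percent of vehicle DMSO control viability so 100% = untreated growth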
conditions: second compound 0.1 µM; first compound 3.16 µM
Description: DNA G-quadruplex Stabilizer Agents in Combinations in Complex Spheroids A high-throughput screen of multi-cell type tumor spheroids was designed to identify active combinations of DNA G-quadruplex stabilizer agents and targeted small molecules. […] Compounds. […] If the clinical Cmax for an agent had not been determined, the highest concentration tested was 10 microM. […]
Write down one outcome, taken from T (active), F (inactive)

{"molecule": "Nc1ccn(C2OC(CO)C(O)C2(F)F)c(=O)n1 (stereo unspecified) + CN(C)c1ccc(Nc2c3ccc(NC(=O)CCN4CCCC4)cc3nc3cc(NC(=O)CCN4CCCC4)ccc23)cc1", "label.class": "F"}
{"molecule": "Nc1ccn(C2OC(CO)C(O)C2(F)F)c(=O)n1 (stereo unspecified) + Cc1[nH]c2ccc(F)cc2c1-c1nc2c3cccnc3c3ncccc3c2[nH]1", "label.class": "F"}
{"molecule": "C#Cc1c(F)ccc2cc(O)cc(-c3ncc4c(N5CC6CCC(C5)N6)nc(OCC56CCCN5CC(F)C6)nc4c3F)c12 (stereo unspecified) + CN(C)c1ccc(Nc2c3ccc(NC(=O)CCN4CCCC4)cc3nc3cc(NC(=O)CCN4CCCC4)ccc23)cc1", "label.class": "F"}
{"molecule": "CCCS(=O)(=O)Nc1ccc(F)c(C(=O)c2c[nH]c3ncc(-c4ccc(Cl)cc4)cc23)c1F + Cc1[nH]c2ccc(F)cc2c1-c1nc2c3cccnc3c3ncccc3c2[nH]1", "label.class": "F"}

q: Please share the test call associated with O=C(c1cc(Cc2n[nH]c(=O)c3ccccc23)ccc1F)N1CCN(C(=O)C2CC2)CC1 + Cc1[nH]c2ccc(F)cc2c1-c1nc2c3cccnc3c3ncccc3c2[nH]1 .
a: F

q: Next entry: COc1cccc2c1C(=O)c1c(O)c3c(c(O)c1C2=O)CC(O)(C(=O)CO)CC3OC1CC(N)C(O)C(C)O1 (stereo unspecified) + Cc1cnc(CNC(=O)c2c(=O)c3ccc(N4CCCN(C)CC4)nc3n3c2sc2ccccc23)cn1
a: T

###

Tested on: 598228-144-R-J1-PDC complex spheroid viability
test.name: Anticancer human tumor 598228-144-R-J1-PDC cell line growth inhibition [GQUAD]; active = viability on the fitted dose curve at most 10% of control; inactive = the rest;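 further: spheroids exposed to the agents for one week before reading; percent of vehicle DMSO control viability so 100% = untreated growth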
conditions: second compound 0.316 µM; first compound 1 µM
Write down one outcome, taken from YES for active, NO for inactive

{"molecule": "C#Cc1c(F)ccc2cc(O)cc(-c3ncc4c(N5CC6CCC(C5)N6)nc(OCC56CCCN5CC(F)C6)nc4c3F)c12 (stereo unspecified) + Cc1[nH]c2ccc(F)cc2c1-c1nc2c3cccnc3c3ncccc3c2[nH]1", "subject.of.test": "598228-144-R-J1-PDC complex spheroid viability", "label.class": "NO"}
{"molecule": "C=CC(=O)N1CCN(c2nc(=O)n(-c3c(C)ccnc3C(C)C)c3nc(-c4c(O)cccc4F)c(F)cc23)C(C)C1 (stereo unspecified) + CN(C)c1ccc(Nc2c3ccc(NC(=O)CCN4CCCC4)cc3nc3cc(NC(=O)CCN4CCCC4)ccc23)cc1", "subject.of.test": "598228-144-R-J1-PDC complex spheroid viability", "label.class": "NO"}
{"molecule": "COc1ccc([C@@H](O)c2cc(-c3ncnc4cc(N5CCOCC5)ccc34)c(F)cc2Cl)nn1 + Cc1[nH]c2ccc(F)cc2c1-c1nc2c3cccnc3c3ncccc3c2[nH]1", "subject.of.test": "598228-144-R-J1-PDC complex spheroid viability", "label.class": "NO"}
{"molecule": "O=C(c1cc(Cc2n[nH]c(=O)c3ccccc23)ccc1F)N1CCN(C(=O)C2CC2)CC1 + CN(C)c1ccc(Nc2c3ccc(NC(=O)CCN4CCCC4)cc3nc3cc(NC(=O)CCN4CCCC4)ccc23)cc1", "subject.of.test": "598228-144-R-J1-PDC complex spheroid viability", "label.class": "NO"}
{"molecule": "CC(C)(O)C1CCC(Nc2ccc3ncc(-c4cccc(C(F)(F)F)c4)n3n2)CC1 (stereo unspecified) + CN(C)c1ccc(Nc2c3ccc(NC(=O)CCN4CCCC4)cc3nc3cc(NC(=O)CCN4CCCC4)ccc23)cc1", "subject.of.test": "598228-144-R-J1-PDC complex spheroid viability", "label.class": "NO"}
{"molecule": "C=CCn1c(=O)c2cnc(Nc3ccc(N4CCN(C)CC4)cc3)nc2n1-c1cccc(C(C)(C)O)n1 + Cc1cnc(CNC(=O)c2c(=O)c3ccc(N4CCCN(C)CC4)nc3n3c2sc2ccccc23)cn1", "subject.of.test": "598228-144-R-J1-PDC complex spheroid viability", "label.class": "NO"}
{"molecule": "C#Cc1c(F)ccc2cc(O)cc(-c3ncc4c(N5CC6CCC(C5)N6)nc(OCC56CCCN5CC(F)C6)nc4c3F)c12 (stereo unspecified) + CN(C)c1ccc(Nc2c3ccc(NC(=O)CCN4CCCC4)cc3nc3cc(NC(=O)CCN4CCCC4)ccc23)cc1", "subject.of.test": "598228-144-R-J1-PDC complex spheroid viability", "label.class": "NO"}
{"molecule": "CC1COCCN1c1cc(C2(O)CC3CCC(C2)O3)c2cnn(-c3ccn[nH]3)c2n1 (stereo unspecified) + Cc1[nH]c2ccc(F)cc2c1-c1nc2c3cccnc3c3ncccc3c2[nH]1", "subject.of.test": "598228-144-R-J1-PDC complex spheroid viability", "label.class": "NO"}
{"molecule": "CC(C)n1c(=O)n(C)c2cnc3cc(F)c(-c4ccc(OCCCN5CCCCC5)nc4)cc3c21 + CN(C)c1ccc(Nc2c3ccc(NC(=O)CCN4CCCC4)cc3nc3cc(NC(=O)CCN4CCCC4)ccc23)cc1", "subject.of.test": "598228-144-R-J1-PDC complex spheroid viability", "label.class": "NO"}
{"molecule": "COc1cc(C2c3cc4c(cc3C(OC3OC5COC(C)OC5C(O)C3O)C3COC(=O)C23)OCO4)cc(OC)c1O (stereo unspecified) + Cc1[nH]c2ccc(F)cc2c1-c1nc2c3cccnc3c3ncccc3c2[nH]1", "subject.of.test": "598228-144-R-J1-PDC complex spheroid viability", "label.class": "NO"}

q: Please share the test call associated with Cc1cccc(N(C)C(=O)C2C(O)CCN2c2nc(C)cc(C(F)(F)F)c2C#N)c1 (stereo unspecified) + Cc1cnc(CNC(=O)c2c(=O)c3ccc(N4CCCN(C)CC4)nc3n3c2sc2ccccc23)cn1 .
a: NO

q: Next entry: COc1cccc2c1C(=O)c1c(O)c3c(c(O)c1C2=O)CC(O)(C(=O)CO)CC3OC1CC(N)C(O)C(C)O1 (stereo unspecified) + Cc1[nH]c2ccc(F)cc2c1-c1nc2c3cccnc3c3ncccc3c2[nH]1
a: NO

q: Next entry: COc1cc(C2c3cc4c(cc3C(OC3OC5COC(C)OC5C(O)C3O)C3COC(=O)C23)OCO4)cc(OC)c1O (stereo unspecified) + Cc1cnc(CNC(=O)c2c(=O)c3ccc(N4CCCN(C)CC4)nc3n3c2sc2ccccc23)cn1
a: NO

q: Next entry: COc1ncnc(C2CC2)c1-c1ncc2cnn(Cc3ccc(-c4nc(C(F)(F)F)cn4C(C)C)cc3)c2n1 + CN(C)c1ccc(Nc2c3ccc(NC(=O)CCN4CCCC4)cc3nc3cc(NC(=O)CCN4CCCC4)ccc23)cc1
a: NO
